test system: PC3-CXCR4 xenograft tumors; experiment: Biodistribution in mice bearing bilateral PC3-WT/PC3-CXCR4 xenograft tumors; type: in vivo, BALB/c mice; settings: 1 h p.i.
quantity kind: PC3-CXCR4 Tumor-to-Tissue Ratio Kidneys
The reply should be a number, written without any unit.

Query block: PC3-CXCR4 Tumor-to-Tissue Ratio Kidneys of FCCn1cc(CNCc2ccc(CN3CCCNCCNCCCNCC3)cc2)nn1 on PC3-CXCR4 xenograft tumors?
Result block: 0.3

Query block: PC3-CXCR4 Tumor-to-Tissue Ratio Kidneys of FCCn1cc(-c2cc(CNCc3ccccn3)ccc2CN2CCCNCCNCCCNCC2)nn1 on PC3-CXCR4 xenograft tumors?
Result block: 0.2

Query block: PC3-CXCR4 Tumor-to-Tissue Ratio Kidneys of FCCn1cc(-c2cc(CN3CCCNCCNCCCNCC3)ccc2CNCc2ccccn2)nn1 on PC3-CXCR4 xenograft tumors?
Result block: 1.1

Query block: PC3-CXCR4 Tumor-to-Tissue Ratio Kidneys of FCCn1cc(CCNCc2ccc(CN3CCCNCCNCCCNCC3)cc2)nn1 on PC3-CXCR4 xenograft tumors?
Result block: 0.3
